- Tested on: soybean (Glycine max)
- ASSAY_NAME: Test C preemergence, soybean
- Assay type: in vivo
- SETTINGS: 31 g ai/ha Preemergence; 0 is no effect, 100 is complete control
MEASURED_ENDPOINT: Plant response rating (0 to 100 scale), Soybean
Keep the answer to the number alone.

[
  {
    "COMPOUND": "CCOC(=O)N(c1cc(N2CCC(OC3CC3)C2=O)c(C)cc1C)S(=O)(=O)C(F)(F)F (stereo not shown)",
    "TARGET_DESC": "soybean (Glycine max)",
    "ASSAY_VALUE": 30
  },
  {
    "COMPOUND": "Cc1cc(C)c(N2CCC(OCC3CCC3(F)F)C2=O)cc1NS(=O)(=O)C(F)(F)F (stereo not shown)",
    "TARGET_DESC": "soybean (Glycine max)",
    "ASSAY_VALUE": 30
  },
  {
    "COMPOUND": "Cc1c(N2CCC(OC3CC3)C2=O)cc(N(C(=O)OCC(C)C)S(=O)(=O)C(F)(F)F)c(C)c1C (stereo not shown)",
    "TARGET_DESC": "soybean (Glycine max)",
    "ASSAY_VALUE": 30
  }
]

Now for another entry.
Provide the documented Plant response rating (0 to 100 scale), Soybean with soybean (Glycine max) as the system for Cc1cc(C)c(N(COC(=O)C(C)(C)C)S(=O)(=O)C(F)(F)F)cc1N1CCC(OCC2CC(F)(F)C2)C1=O (stereo not shown)
0

====

- Tested on: ducksalad (Heteranthera limosa)
- ASSAY_NAME: Test D flooded paddy test, ducksalad
- Format: in vivo
- Parameters: key: 0 = no effect, 100 = complete control
- SETTINGS: 250 g ai/ha, Flood; applied to paddy water at 2-leaf stage; visual rating after 13 days; scale 0 (no effect) to 100 (complete control)
Simple rule here: Plant response rating, Ducksalad less than 80 is fulfilled, otherwise not fulfilled.

Reference set, count: 6
[
  {
    "COMPOUND": "C=CCO/N=C1\\CCN(c2cc(NS(=O)(=O)C(F)(F)F)c(C)cc2C)C1=O",
    "CLASS_ASSIGNMENT": "not fulfilled"
  },
  {
    "COMPOUND": "Cc1cc(C)c(N2CCC(OCc3ccccc3)C2=O)cc1NS(=O)(=O)C(F)(F)F (stereo not drawn)",
    "CLASS_ASSIGNMENT": "fulfilled"
  },
  {
    "COMPOUND": "CC#CCOC1CCN(c2cc(NS(=O)(=O)C(F)(F)F)c(C)cc2C)C1=O (stereo not drawn)",
    "CLASS_ASSIGNMENT": "not fulfilled"
  },
  {
    "COMPOUND": "Cc1cc(C)c(N(COC(=O)C(C)(C)C)S(=O)(=O)C(F)(F)F)cc1N1CCC(OCC2CC2)C1=O (stereo not drawn)",
    "CLASS_ASSIGNMENT": "fulfilled"
  },
  {
    "COMPOUND": "COC(=O)N(c1cc(N2CCC(OC3CC3)C2=O)c(C)cc1Cl)S(=O)(=O)C(F)(F)F (stereo not drawn)",
    "CLASS_ASSIGNMENT": "fulfilled"
  },
  {
    "COMPOUND": "Cc1c(NS(=O)(=O)C(F)(F)F)cc(N2CCC(OC3CCC3)C2=O)c(C)c1C (stereo not drawn)",
    "CLASS_ASSIGNMENT": "not fulfilled"
  }
]

API: query returns whether the compound falls strictly under 80 in Plant response rating, Ducksalad. Query: Cc1c(NS(=O)(=O)C(F)(F)F)cc(N2CCC(OCC3CC3)C2=O)c(C)c1F (stereo not drawn)
not fulfilled

Moving on to the next compound: Cc1c(N2CCC(OC3CCC3)C2=O)cc(N(COC(=O)C(C)(C)C)S(=O)(=O)C(F)(F)F)c(C)c1C (stereo not drawn)
not fulfilled

The measured values listed here are drawn from patent US20240158348A1.
